Assay: Half life period was determined
Format: ADME
Details: rat
Endpoint: half-life (min)

Smiles structure	Measured value
CN(C(=O)Oc1ccc(N(CCCl)CCCl)cc1)c1cc([N+](=O)[O-])ccc1O[C@@H]1O[C@@H](C(=O)O)[C@@H](O)[C@H](O)[C@@H]1O	44
